Test system: human bronchial epithelial cells (16HBE)
assay-remarks: Cell viability CCK8, 16HBE cells
Type: cell-based
condition-parameters: 16HBE epithelial cell, 48 hrs
Method: To test whether GA and AF are toxic to normal cells, Vero E6, RAW264.7, and 16HBE cell lines were tested. Various doses of AURANOFIN or GA gold cluster were added into cell culture media respectively. After 48 hours of incubation, cell viability was checked by CCK8 (Beyotime, China) following the manufacturer’s instruction, all studies were carried out in triplicate. All cell lines were obtained from ATCC with authentication service.
quantity: CC50

> print(dat)
                                   compound                                    target  quantity  measured
1  CC(=O)OC[C@H]1O[C@@H]([S-])[C@H](OC(C)=O)[C@@H](OC(C)=O)[C@@H]1OC(C)=O.CCP(CC)CC.[Au+] [AF, AURANOFIN]  human bronchial epithelial cells (16HBE)      CC50   ~630 nM

Data provenance: patent US20230241101A1
